Just for reference, patent US12264134B2 is where these values come from.

System under test: IDO1 (Homo sapiens, UniProt P14902)
Sequence (P14902 whole entry): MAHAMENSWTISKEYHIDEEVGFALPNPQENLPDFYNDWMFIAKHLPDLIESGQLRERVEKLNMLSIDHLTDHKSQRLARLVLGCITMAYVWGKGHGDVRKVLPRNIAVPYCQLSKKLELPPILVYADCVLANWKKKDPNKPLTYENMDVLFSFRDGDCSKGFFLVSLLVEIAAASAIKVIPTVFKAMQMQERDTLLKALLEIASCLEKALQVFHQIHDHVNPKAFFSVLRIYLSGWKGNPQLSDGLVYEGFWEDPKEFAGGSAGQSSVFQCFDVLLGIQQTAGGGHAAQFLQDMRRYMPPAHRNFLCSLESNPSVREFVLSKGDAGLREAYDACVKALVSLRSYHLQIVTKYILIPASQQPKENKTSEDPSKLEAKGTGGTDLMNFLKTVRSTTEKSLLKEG
Assay notes: IDO1 Human Whole blood Assay
Type: cell-based
Design: Human whole blood was drawn in sodium heparin coated tubes from healthy internal donors; from tissue; host or cells: human whole blood from healthy donors, stimulated with LPS and IFNγ
Condition label: LPS and IFNγ stimulated, 18 h, read-out: Human Whole Blood Potency, IC50
Reported property: pIC50
One number for each entry, as −log10 of the molar value.

As a guide, the following entries are already answered.
>>> df
                                   molecule                    system_under_test  recorded_value
0  Cc1cccc(N2CCN(C(=O)Cn3nc(C(=O)N4CCN(S(=O)(=O)N(C)C)CC4)c4c3CCC4)CC2)c1C  IDO1 (Homo sapiens, UniProt P14902)            6.34
1  Cc1cccc(N2CCN(C(=O)Cn3nc(C(=O)N4CCC(n5ncnn5)CC4)c4c3CCC4)CC2)c1C  IDO1 (Homo sapiens, UniProt P14902)            6.51

Provide reported pIC50 for each item, in the same order as listed.
1. Cc1cccc(N2CCN(C(=O)Cn3nc(C(=O)N4CCC(O)CC4)c4c3C[C@H]3C[C@@H]43)C3(CC3)C2)c1C
2. Cc1c(F)ccc(N2CCN(C(=O)Cn3nc(C(=O)N4CC[C@H](O)[C@H](F)C4)c4c3CCCC4)CC2)c1C
3. Cc1cccc(N2CCN(C(=O)Cn3nc(C(=O)N4CCC(O)(CF)CC4)c4c3C[C@H]3C[C@@H]43)C(C)(C)C2)c1C

5.73
7.06
5.02

Provide reported pIC50 for each item, in the same order as listed.
1. Cc1cccc(N2CCN(C(=O)Cn3nc(C(=O)N4CCC(CO)CC4)c4c3CCC4)CC2)c1C
2. Cc1cccc(N2CCN(C(=O)Cn3nc(C(=O)N4CCC(O)CC4)c4c3CC(C(F)F)C4)CC2)c1C (single isomer, unassigned) [Example 10]

6.15
6.63

Provide reported pIC50 for each item, in the same order as listed.
1. Cc1cccc(N2CCN(C(=O)Cn3nc(C(=O)N4CC[C@H](O)[C@H](F)C4)c4c3CCCC4)CC2)c1C
2. Cc1cccc(N2CCN(C(=O)Cn3nc(C(=O)N4CC[C@@H](O)[C@@H](F)C4)c4c3CCCC4)CC2)c1Cl
3. Cc1cccc(N2CCN(C(=O)Cn3nc(C(=O)N4C[C@@H](C)N[C@@H](C)C4)c4c3C[C@H]3C[C@@H]43)CC2)c1C
4. Cc1c(Cl)cccc1N1CCN(C(=O)Cn2nc(C(=O)N3CC[C@H](O)[C@H](F)C3)c3c2CCC(F)(F)C3)CC1
5. Cc1cccc(N2CCN(C(=O)Cn3nc(C(=O)N4CCC(OCCO)CC4)c4c3CCC4)CC2)c1C
6. Cc1cccc(N2CCN(C(=O)Cn3nc(C(=O)N4CCN(S(C)(=O)=O)C[C@@H]4C)c4c3CCC4)CC2)c1C
7. Cc1cccc(N2CCN(C(=O)Cn3nc(C(=O)N4CC[C@H](O)[C@@H](F)C4)c4c3C[C@H]3C[C@@H]43)CC2)c1C

1: 7.28; 2: 6.51; 3: 6.56; 4: 6.22; 5: 6.70; 6: 6.06; 7: 6.67

----------
System under test: IDO1 (Homo sapiens, UniProt P14902)
Assay notes: IDO1 Cellular Assay in HeLa Cells Stimulated with IFNγ
Assay type: cell-based
Condition label: read-out: HeLa Cell Potency, IC50
Description: IDO1 Cellular Assay in HeLa Cells Stimulated with IFNγ HeLa cells were cultured in complete HeLa culture medium (90% EMEM, 10% heat-inactivated fetal bovine serum) and expanded to about 1×10^9 cells. […] Frozen HeLa cells were thawed and transferred into HeLa assay medium (99% complete HeLa culture medium, 1% Pen/Strep) with 20 mL medium/vial of cells. […] The cells were then counted and adjusted to a density of 2×10^5 cells/mL in HeLa assay medium. […]
Reported property: pIC50
Numbers only, as −log10 of the molar value.

As a guide, the following entries are already answered.
                                   molecule  recorded_value
0  Cc1cccc(N2CCN(C(=O)Cn3nc(C(=O)N4CCN(CC(F)(F)F)CC4)c4c3C[C@H]3C[C@@H]43)CC2)c1C            9.03
1  O=C(Cn1nc(C(=O)N2CC[C@H](O)[C@H](F)C2)c2c1CCC2)N1CCN(C2CCCc3ccccc32)CC1 (single isomer, unassigned) [Example 426]            6.52
2  Cc1c(N2CCN(C(=O)Cn3nc(C(=O)N4CCN(C(=O)CO)CC4)c4c3C[C@H]3C[C@@H]43)CC2)cccc1C(F)(F)F            8.55
3  Cc1cccc(N2CCN(C(=O)Cn3nc(C(=O)N4CC[C@H](O)[C@H](F)C4)c4c3C[C@H]3C[C@@H]43)CC2)c1C            8.71
4  Cc1cccc(N2CCN(C(=O)Cn3nc(C(=O)N4C5CCC4CC(O)C5)c4c3CCC4)CC2)c1C (stereo not shown)            7.73
5  Cc1cccc(N2CCN(C(=O)Cn3nc(C(=O)N4C[C@@H](O)[C@@H](O)C4)c4c3CCC4)CC2)c1C            6.40

Read the next record carefully.
Quick check: pIC50 on IDO1 (Homo sapiens, UniProt P14902), item "Cc1cccc(N2CCN(C(=O)Cn3nc(C(=O)N4CCCCC45CC5)c4c3C[C@H]3C[C@@H]43)CC2)c1C" ?
8.86

----------
System under test: IDO1 (Homo sapiens)
Assay notes: IDO1 Cellular Assay in HeLa Cells Stimulated with IFNγ
Assay type: cell-based
Condition label: read-out: HeLa Cell Potency, IC50
Reported property: pIC50
Numbers only, as −log10 of the molar value.

                                   compound  reported_property  recorded_value
0  Cc1cccc(N2CCN(C(=O)Cn3nc(C(=O)N4CCC(N)CC4)c4c3C[C@H]3C[C@@H]43)CC2)c1C [Example 479]              pIC50            8.12

Provide reported pIC50 for each item, in the same order as listed.
1. Cc1cccc(N2CCN(C(=O)Cn3nc(C(=O)N4CC5(CCN(C)C5)C4)c4c3C[C@H]3C[C@@H]43)CC2)c1C [Example 243]
2. Cc1cccc(N2CCN(C(=O)Cn3nc(C(=O)N4CC[C@H](O)[C@H](F)C4)c4c3CC(C(F)F)C4)CC2)c1C (mixture of isomers) [Example 17]

6.80
7.96

----------
System under test: UniProt P14902
Assay notes: IDO1 Cellular Assay in HeLa Cells Stimulated with IFNγ
Format: cell-based
Condition label: HeLa Cell Potency, IC50 (nM)
Reported property: IC50

Returns the measured IC50 for the input molecule. Input: "Cc1cccc(N2CCN(C(=O)Cn3nc(C(=O)N4CCC(=O)CC4)c4c3C[C@H]3C[C@@H]43)CC2)c1C"
< 0.51 nM

----------
Please provide measured pIC50 for the entries that follow.
System under test: IDO1 (Homo sapiens)
Assay notes: IDO1 Cellular Assay in HeLa Cells Stimulated with IFNγ
Assay type: cell-based
Condition label: read-out: HeLa Cell Potency, IC50
Structures can show the parent of a compound that is named as a salt.
One number for each entry, as −log10 of the molar value.

>>> print(df.to_string())
                                   compound  reported_property  recorded_value
0  Cc1cccc(N2CCN(C(=O)Cn3nc(C(=O)N4CCN(C(=O)CO)CC4)c4c3C[C@H]3C[C@@H]43)C3(CC3)C2)c1C              pIC50            9.03
1  Cc1cccc(N2CCN(C(=O)Cn3nc(C(=O)N4CC[C@H](N)[C@@H](F)C4)c4c3CCC4)CC2)c1C [Example 203, formate]              pIC50            7.88
2  Cc1cccc(N2CCN(C(=O)Cn3nc(C(=O)N4CCC5(CC4)COCC5O)c4c3CCC4)CC2)c1C (stereo not drawn) [Example 114]              pIC50            8.20
3  Cc1cccc(N2CCN(C(=O)Cn3nc(C(=O)N4CCC5(CC4)NC(=O)NC5=O)c4c3CCC4)CC2)c1C              pIC50            6.85
4  Cc1ccc(N2CCN(C(=O)Cn3nc(C(=O)N4C[C@@H](C)O[C@@H](C)C4)c4c3CCC4)CC2)cc1Cl              pIC50            7.18
5  Cc1cccc(N2CCN(C(=O)Cn3nc(C(=O)N4C[C@@H](C)O[C@@H](C)C4)c4c3CCC4)CC23CC3)c1C              pIC50            7.90

Provide reported pIC50 for each item, in the same order as listed.
1. Cc1cccc(N2CCN(C(=O)Cn3nc(C(=O)N4CC[C@H](O)[C@H](F)C4)c4c3CC(C(F)F)C4)CC2)c1C (single isomer, unassigned) [Example 12]
2. Cc1cccc(N2CCN(C(=O)Cn3nc(C(=O)N4CCN(C)[C@@H](C)C4)c4c3CCC4)CC2)c1C

1: 7.88; 2: 8.21

Provide reported pIC50 for each item, in the same order as listed.
1. Cc1c(F)ccc(N2CCN(C(=O)Cn3nc(C(=O)N4CC[C@H](O)[C@H](F)C4)c4c3CCCC4)CC2)c1C
2. C[C@@H]1CN(C(=O)c2nn(CC(=O)N3CCN(c4ccc(Cl)cc4)CC3)c3c2CCC3)C[C@H](C)O1
3. Cc1cccc(N2CCN(C(=O)Cn3nc(C(=O)N4CCC(O)C(F)C4)c4c3CCC4)C3(CC3)C2)c1C (stereo not drawn) [Example 325]
4. Cc1c(C#N)cccc1N1CCN(C(=O)Cn2nc(C(=O)N3C[C@@H](C)O[C@@H](C)C3)c3c2CCC3)CC1
5. Cc1cccc(N2CCN(C(=O)Cn3nc(C(=O)N4C[C@@H](C)O[C@@H](C)C4)c4c3[C@H]3C[C@H]3C4)CC2)c1C

[8.83, 6.83, 8.39, 7.19, 8.25]

Provide reported pIC50 for each item, in the same order as listed.
1. Cc1cccc(N2CCN(C(=O)Cn3nc(C(=O)N4CC[C@@H](N)[C@@H](C)C4)c4c3CCC4)CC2)c1C
2. Cc1cccc(N2CCN(C(=O)Cn3nc(C(=O)N4CCN(S(C)(=O)=O)C[C@@H]4C)c4c3CCC4)CC2)c1C
3. Cc1cccc(N2CCN(C(=O)Cn3nc(C(=O)N4CC[C@@H](O)[C@@H](F)C4)c4c3C(O)CC4)CC2)c1C (single isomer, unassigned) [Example 423]

1: 7.05; 2: 8.88; 3: 6.71

Provide reported pIC50 for each item, in the same order as listed.
1. Cc1cccc(N2CCN(C(=O)Cn3nc(C(=O)N4CCC5(C4)CC5(F)F)c4c3CCC4)CC2)c1C (stereo not drawn)
2. Cc1cccc(N2CCN(C(=O)Cn3nc(C(=O)N4CCC(N)CC4)c4c3CCC4)CC2)c1C
3. Cc1cccc(N2CCN(C(=O)Cn3nc(C(=O)N4CC[C@@H](F)[C@@H](O)C4)c4c3CCC4)CC2)c1C
4. Cc1cccc(N2CCN(C(=O)Cn3nc(C(=O)N4CC[C@@H](O)[C@@H](O)C4)c4c3CCC4)CC2)c1C

8.24
7.58
7.88
7.30

Provide reported pIC50 for each item, in the same order as listed.
1. Cc1cccc(N2CCN(C(=O)Cn3nc(C(=O)N4CCC(O)C(CO)C4)c4c3CCCC4)CC2)c1C (stereo not drawn)
2. Cc1cccc(N2CCN(C(=O)Cn3nc(C(=O)N4CCC(F)(CO)CC4)c4c3C[C@H]3C[C@@H]43)CC2)c1C

8.98
8.82

Provide reported pIC50 for each item, in the same order as listed.
1. Cc1cccc(N2CCN(C(=O)Cn3nc(C(=O)N4C[C@@H](C)N[C@@H](C)C4)c4c3CCC4)CC2)c1C
2. O=C(Cn1nc(C(=O)N2CC[C@H](O)[C@@H](F)C2)c2c1CCC2)N1CCN(C2CCCc3ccccc32)CC1 (stereo partly drawn) [Example 434]
3. Cc1cccc(N2CCN(C(=O)Cn3nc(C(=O)N4CC[C@H](O)[C@H](F)C4)c4c3CCC4)CC2)c1C [Example 92]
4. Cc1cccc(N2CCN(C(=O)Cn3nc(C(=O)N4CCN(C)[C@H](C)C4)c4c3CCC4)CC2)c1C
5. Cc1cccc(N2CCN(C(=O)Cn3nc(C(=O)N4CCC(O)CC4(C)C)c4c3CCCC4)CC2)c1C (stereo not drawn)

1: 7.94; 2: 5.09; 3: 7.96; 4: 8.10; 5: 8.90
